Here, each record is paired with measured Human β3-AR Agonist Activity (%) data.
Molecular target: human β3-AR (Homo sapiens, UniProt P13945)
Construct: expressed in transfected cells; host or cells: CHO (Chinese hamster ovary) cells, stably transfected
Sequence (P13945 whole entry): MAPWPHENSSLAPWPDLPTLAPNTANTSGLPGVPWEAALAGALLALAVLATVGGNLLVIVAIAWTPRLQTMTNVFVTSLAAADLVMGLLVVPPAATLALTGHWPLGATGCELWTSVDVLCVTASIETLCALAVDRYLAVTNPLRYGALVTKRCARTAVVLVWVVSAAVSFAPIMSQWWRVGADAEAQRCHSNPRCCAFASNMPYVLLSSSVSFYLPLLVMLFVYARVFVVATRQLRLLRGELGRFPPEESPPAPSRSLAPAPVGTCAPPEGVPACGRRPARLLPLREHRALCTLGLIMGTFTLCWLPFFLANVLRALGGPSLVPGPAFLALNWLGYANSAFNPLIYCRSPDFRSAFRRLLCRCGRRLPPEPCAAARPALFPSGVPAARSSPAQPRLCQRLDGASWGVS
Test: cAMP functional agonist assay (LANCE TR-FRET) in CHO cells expressing cloned human β3-AR
Type: cell-based
Conditions: percent maximum activation relative to isoproterenol
Procedure: The ability of compounds to activate the human β3-AR receptor was measured using a CHO cell line stably expressing the cloned human β1-, β2-, and β3-adrenoceptors (β-AR). […] To quantify the amount of cAMP released following β-AR activation, the LANCE cAMP kit (Perking Elmer), a time-resolved fluorescence resonance energy transfer immunoassay, was used. […] For each assay, a cAMP standard curve was included and used to convert fluorescence readings directly to cAMP amounts. […]
RECORDED_METRIC: Human β3-AR Agonist Activity (%)

compound=CN(Cc1cnccn1)C(=O)c1ccc(C[C@@H]2CC[C@H]([C@H](O)c3ccc(Cl)nc3)N2)cc1 numeric_value=111
compound="COC(CN(C)C(=O)c1ccc(C[C@@H]2CC[C@H]([C@H](O)c3ccc(Cl)nc3)N2)cc1)c1cccc(=O)[nH]1 (stereo partly shown)" numeric_value=81
compound=CN(Cc1cccnc1F)C(=O)c1ccc(C[C@@H]2CC[C@H]([C@H](O)c3ccc(F)cc3)N2)cc1 numeric_value=93
compound=CN(Cc1n[nH]c2c1CCC2)C(=O)c1ccc(C[C@@H]2CC[C@H]([C@H](O)c3ccccc3)N2)cc1 numeric_value=113
compound=Cc1cc(CN(C)C(=O)c2ccc(C[C@@H]3CC[C@H]([C@H](O)c4ccc(OC(F)F)cc4)N3)cc2)n[nH]1 numeric_value=79
compound="CC(c1cnccn1)N(C)C(=O)c1ccc(C[C@@H]2CC[C@H]([C@H](O)c3ccccc3)N2)cc1 (stereo partly shown)" numeric_value=109
compound=CN(Cc1cccnc1)C(=O)c1ccc(C[C@@H]2CC[C@H]([C@H](O)c3cccc(Cl)c3)N2)cc1 numeric_value=97

---

Target: human β3-AR (Homo sapiens, UniProt P13945)
Construct: expressed in transfected cells; host or cells: CHO (Chinese hamster ovary) cells, stably transfected
Test: cAMP functional agonist assay (LANCE TR-FRET) in CHO cells expressing cloned human β3-AR
Format: cell-based
Conditions: EC50 of comparative example divided by EC50 of corresponding 2-chloropyridine compound
Grouping by measured Fold drop in potency vs. 2-chloropyridine analog is done with the following cut points: lower range (below 2 fold), middle range (2 fold to below 5 fold), upper range (5 fold or more)

compound=CN(Cc1ccc(=O)[nH]c1)C(=O)c1ccc(C[C@@H]2CC[C@H]([C@H](O)c3ccc(F)cc3)N2)cc1 answer_label="middle range"
compound=CN(Cc1ccc(Cl)nc1)C(=O)c1ccc(C[C@@H]2CC[C@H]([C@H](O)c3ccc(F)cc3)N2)cc1 answer_label="upper range"
compound=CN(Cc1ccc(=O)[nH]c1)C(=O)c1ccc(C[C@@H]2CC[C@H]([C@H](O)c3cccc(F)c3)N2)cc1 answer_label="middle range"
compound=CN(Cc1cncc(C#N)c1)C(=O)c1ccc(C[C@@H]2CC[C@H]([C@H](O)c3ccccc3)N2)cc1 answer_label="middle range"
compound=COC(=O)c1cncc(CN(C)C(=O)c2ccc(C[C@@H]3CC[C@H]([C@H](O)c4ccccc4)N3)cc2)c1 answer_label="middle range"
compound=Cc1cc(CN(C)C(=O)c2ccc(C[C@@H]3CC[C@H]([C@H](O)c4cccnc4)N3)cc2)cnc1F answer_label="upper range"
compound=CN(Cc1cnccn1)C(=O)c1ccc(C[C@@H]2CC[C@H]([C@H](O)c3cccc(Cl)c3)N2)cc1 answer_label="upper range"
compound=CN(Cc1cccnc1)C(=O)c1ccc(C[C@@H]2CC[C@H]([C@H](O)c3ccc(N)nc3)N2)cc1 answer_label="middle range"
compound=CN(Cc1cncc(C(C)(C)O)c1)C(=O)c1ccc(C[C@@H]2CC[C@H]([C@H](O)c3ccc(Cl)cc3)N2)cc1 answer_label="lower range"
compound=CN(Cc1cnccn1)C(=O)c1ccc(C[C@@H]2CC[C@H]([C@H](O)c3ccc(Cl)cc3)N2)cc1 answer_label="lower range"
compound=CCc1[nH]nc(CN(C)C(=O)c2ccc(C[C@@H]3CC[C@H]([C@H](O)c4ccccc4)N3)cc2)c1C answer_label="lower range"
compound=Cc1cc(CN(C)C(=O)c2ccc(C[C@@H]3CC[C@H]([C@H](O)c4ccccc4)N3)cc2)cnc1F answer_label="middle range"
compound=Cc1cc(CN(C)C(=O)c2ccc(C[C@@H]3CC[C@H]([C@H](O)c4ccc(F)cc4)N3)cc2)n[nH]1 answer_label="middle range"
compound=COCc1cc(CN(C)C(=O)c2ccc(C[C@@H]3CC[C@H]([C@H](O)c4ccc(Cl)cc4)N3)cc2)n[nH]1 answer_label="lower range"
compound=CN(Cc1nc2ccsc2c(=O)[nH]1)C(=O)c1ccc(C[C@@H]2CC[C@H]([C@H](O)c3ccccc3)N2)cc1 answer_label="lower range"
compound=CN(Cc1ccc(Cl)nc1)C(=O)c1ccc(C[C@@H]2CC[C@H]([C@H](O)c3ccccc3)N2)cc1 answer_label="upper range"
compound="CC(c1cnccn1)N(C)C(=O)c1ccc(C[C@@H]2CC[C@H]([C@H](O)c3ccc(F)cc3)N2)cc1 (stereo partly shown)" answer_label="middle range"
compound=CN(Cc1cc(C(F)(F)F)[nH]n1)C(=O)c1ccc(C[C@@H]2CC[C@H]([C@H](O)c3cccnc3)N2)cc1 answer_label="upper range"
compound=CN(Cc1cncc(-c2nn[nH]n2)c1)C(=O)c1ccc(C[C@@H]2CC[C@H]([C@H](O)c3ccccc3)N2)cc1 answer_label="middle range"
compound="CC(c1cccnc1)N(C)C(=O)c1ccc(C[C@@H]2CC[C@H]([C@H](O)c3ccccc3)N2)cc1 (stereo partly shown)" answer_label="lower range"
compound=CN(Cc1cccnc1)C(=O)c1ccc(C[C@@H]2CC[C@H]([C@H](O)c3cccc(Cl)c3)N2)cc1 answer_label="upper range"
compound=CN(Cc1cccnc1)C(=O)c1ccc(C[C@@H]2CC[C@H]([C@H](O)c3ccc(C4CC4)nc3)N2)cc1 answer_label="middle range"
compound=Cc1nnc2ccc(CN(C)C(=O)c3ccc(C[C@@H]4CC[C@H]([C@H](O)c5ccccc5)N4)cc3)cn12 answer_label="lower range"
compound=COc1ncccc1CN(C)C(=O)c1ccc(C[C@@H]2CC[C@H]([C@H](O)c3ccccc3)N2)cc1 answer_label="upper range"
compound=C[C@H](c1nn(C)c(=O)o1)N(C)C(=O)c1ccc(C[C@@H]2CC[C@H]([C@H](O)c3ccccc3)N2)cc1 answer_label="upper range"

---

Target: human β3-AR (Homo sapiens)
Construct: expressed in transfected cells; host or cells: CHO (Chinese hamster ovary) cells, stably transfected
Assay: cAMP functional agonist assay (LANCE TR-FRET) in CHO cells expressing cloned human β3-AR
Assay type: cell-based
Details: percent maximum activation relative to isoproterenol
Here, each record is paired with measured Human β3-AR Agonist Activity (%) data.
RECORDED_METRIC: Human β3-AR Agonist Activity (%)

smiles_representation=CN(Cc1ccnnc1)C(=O)c1ccc(C[C@@H]2CC[C@H]([C@H](O)c3ccccc3)N2)cc1 numeric_value=111
smiles_representation=Cc1nc(-c2ccc([C@@H](O)[C@H]3CC[C@@H](Cc4ccc(C(=O)N(C)Cc5cccnc5)cc4)N3)cn2)no1 numeric_value=3
smiles_representation=COc1ccc(CN(C)C(=O)c2ccc(C[C@@H]3CC[C@H]([C@H](O)c4ccc(Cl)nc4)N3)cc2)cn1 numeric_value=94
smiles_representation=CN(Cc1cccc(=O)[nH]1)C(=O)c1ccc(C[C@@H]2CC[C@H]([C@H](O)c3ccc(OC(F)F)cc3)N2)cc1 numeric_value=72

---

Target: human β3-AR (Homo sapiens, UniProt P13945)
Construct: expressed in transfected cells; host or cells: CHO (Chinese hamster ovary) cells, stably transfected
Test: cAMP functional agonist assay (LANCE TR-FRET) in CHO cells expressing cloned human β3-AR
Type: cell-based
Settings: EC50 of comparative example divided by EC50 of corresponding 2-chloropyridine compound
RECORDED_METRIC: Fold drop in potency vs. 2-chloropyridine analog (fold)

compound="Cc1cc([C@@H](O)[C@H]2CC[C@@H](Cc3ccc(C(=O)N(C)Cc4cccnc4)cc3)N2)cnc1Cl [Example 21-S]" result_qualifier== numeric_value=72.1
compound="COc1ccc([C@@H](O)[C@H]2CC[C@@H](Cc3ccc(C(=O)N(C)Cc4cccnc4)cc3)N2)cn1 [Example 21-P]" result_qualifier== numeric_value=5.7
compound="CN(Cc1cccnc1)C(=O)c1ccc(C[C@@H]2CC[C@H]([C@H](O)c3ccc(C#N)nc3)N2)cc1 [Example 21-O]" result_qualifier== numeric_value=64.3
compound="CN(Cc1cnccn1)C(=O)c1ccc(C[C@@H]2CC[C@H]([C@H](O)c3cncc(F)c3)N2)cc1 [Example 40-R]" result_qualifier== numeric_value=32.0
compound="CN(Cc1cccnc1F)C(=O)c1ccc(C[C@@H]2CC[C@H]([C@H](O)c3cccc(F)c3)N2)cc1 [Example 26-C]" result_qualifier== numeric_value=4.1
compound="CN(Cc1cncc(C(=O)O)c1)C(=O)c1ccc(C[C@@H]2CC[C@H]([C@H](O)c3ccc(Cl)cc3)N2)cc1 [Example 33-G]" result_qualifier== numeric_value=1.4
compound="CN(Cc1cccc(=O)[nH]1)C(=O)c1ccc(C[C@@H]2CC[C@H]([C@H](O)c3ccccc3)N2)cc1 [Example 20-B]" result_qualifier== numeric_value=2.1
compound="CN(Cc1cccnc1)C(=O)c1ccc(C[C@@H]2CC[C@H]([C@H](O)c3ccc(Cl)cc3)N2)cc1 [Example 21-G]" result_qualifier== numeric_value=1.3
compound="COc1ccc(CN(C)C(=O)c2ccc(C[C@@H]3CC[C@H]([C@H](O)c4ccccc4)N3)cc2)cn1 [Example 29-B]" result_qualifier== numeric_value=5.1
compound="CN(Cc1cccnc1)C(=O)c1ccc(C[C@@H]2CC[C@H]([C@H](O)c3cccc(F)c3)N2)cc1 [Example 21-C]" result_qualifier== numeric_value=2.3
compound="CN(Cc1cnccn1)C(=O)c1ccc(C[C@@H]2CC[C@H]([C@H](O)c3ccccc3)N2)cc1 [Example 40-B]" result_qualifier== numeric_value=1.5
compound="CN(Cc1cccc(=O)[nH]1)C(=O)c1ccc(C[C@@H]2CC[C@H]([C@H](O)c3ccc(Cl)cc3)N2)cc1 [Example 20-G]" result_qualifier== numeric_value=4.5
compound="CC(=O)c1ccc([C@@H](O)[C@H]2CC[C@@H](Cc3ccc(C(=O)N(C)Cc4cccnc4)cc3)N2)cn1 [Example 21-J]" result_qualifier=> numeric_value=2300
compound="COCCN(C)C(=O)c1ccc(C[C@@H]2CC[C@H]([C@H](O)c3ccccc3)N2)cc1 [Example 1-B]" result_qualifier== numeric_value=4.6
compound="COCc1cc(CN(C)C(=O)c2ccc(C[C@@H]3CC[C@H]([C@H](O)c4ccc(OC(F)F)cc4)N3)cc2)n[nH]1 [Example 9-E]" result_qualifier== numeric_value=39.6
compound="Cc1cc(CN(C)C(=O)c2ccc(C[C@@H]3CC[C@H]([C@H](O)c4ccc(OC(F)F)cc4)N3)cc2)n[nH]1 [Example 4-E]" result_qualifier== numeric_value=16.4
compound="Cc1cc(CN(C)C(=O)c2ccc(C[C@@H]3CC[C@H]([C@H](O)c4ccc(Cl)cc4)N3)cc2)n[nH]1 [Example 4-G]" result_qualifier== numeric_value=0.8
compound="COC(=O)c1cncc(CN(C)C(=O)c2ccc(C[C@@H]3CC[C@H]([C@H](O)c4ccc(Cl)cc4)N3)cc2)c1 [Example 34-G]" result_qualifier== numeric_value=2.9
compound="Cc1cc(CN(C)C(=O)c2ccc(C[C@@H]3CC[C@H]([C@H](O)c4ccccc4)N3)cc2)n[nH]1 [Example 4-B]" result_qualifier== numeric_value=2.6
compound="CN(Cc1cccc(=O)[nH]1)C(=O)c1ccc(C[C@@H]2CC[C@H]([C@H](O)c3ccc(OC(F)F)cc3)N2)cc1 [Example 20-E]" result_qualifier== numeric_value=18.9
compound="Cc1n[nH]c(CN(C)C(=O)c2ccc(C[C@@H]3CC[C@H]([C@H](O)c4ccccc4)N3)cc2)c1Cl [Example 17-B]" result_qualifier== numeric_value=4.5
compound="CN(Cc1cccnc1)C(=O)c1ccc(C[C@@H]2CC[C@H]([C@H](O)c3ccc(C(N)=O)nc3)N2)cc1 [Example 21-K]" result_qualifier== numeric_value=26.3
compound="Cc1nc(-c2ccc([C@@H](O)[C@H]3CC[C@@H](Cc4ccc(C(=O)N(C)Cc5cccnc5)cc4)N3)cn2)no1 [Example 21-L]" result_qualifier=> numeric_value=2300
compound="CN(Cc1cccnc1)C(=O)c1ccc(C[C@@H]2CC[C@H]([C@H](O)c3ccccc3)N2)cc1 [Example 21-B]" result_qualifier== numeric_value=9.7
compound="CN(Cc1cncc(C(C)(C)O)c1)C(=O)c1ccc(C[C@@H]2CC[C@H]([C@H](O)c3ccccc3)N2)cc1 [Example 32-B]" result_qualifier== numeric_value=1.8
